Task for the reader: assign each of the following molecules its reported pKi.
Target: Muscarinic acetylcholine receptor M2 (Rattus norvegicus)
Sequence (P10980 whole entry): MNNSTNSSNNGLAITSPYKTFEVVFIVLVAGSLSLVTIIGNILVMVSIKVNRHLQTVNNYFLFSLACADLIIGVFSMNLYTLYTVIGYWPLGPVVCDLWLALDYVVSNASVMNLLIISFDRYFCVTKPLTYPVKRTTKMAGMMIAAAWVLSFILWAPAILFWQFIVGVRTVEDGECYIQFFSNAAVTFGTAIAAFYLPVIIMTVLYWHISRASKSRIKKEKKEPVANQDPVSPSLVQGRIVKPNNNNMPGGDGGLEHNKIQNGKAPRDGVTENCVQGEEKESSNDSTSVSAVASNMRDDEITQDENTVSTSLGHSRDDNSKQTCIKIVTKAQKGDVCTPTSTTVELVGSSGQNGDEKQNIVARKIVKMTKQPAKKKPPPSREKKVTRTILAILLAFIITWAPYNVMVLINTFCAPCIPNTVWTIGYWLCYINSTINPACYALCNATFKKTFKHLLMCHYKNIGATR
Numbers only, as −log10 of the molar value.

Known pKi results, listed for orientation:
>  <SMILES>
CC(=O)O[C@H]1C[C@@H]2C[C@@H](OC(=O)c3ccccc3)C[C@@H]1N2C

>  <pKi>
4.97

$$$$
>  <SMILES>
CC(=O)O[C@@H]1C[C@@H]2C[C@H](OC(=O)c3ccccc3[N+](=O)[O-])C[C@@H]1N2C

>  <pKi>
4.08

$$$$

Hi, could you look up pKi for each item in my list?
1. CC(=O)O[C@@H]1C[C@@H]2C[C@H](OC(=O)c3ccccc3)C[C@@H]1N2C
2. CC(=O)O[C@@H]1C[C@@H]2C[C@H](OC(=O)c3ccccc3Cl)C[C@@H]1N2C

Found:
1: 4.11; 2: 4.02

----------
Biological target: Muscarinic acetylcholine receptor M2 (Rattus norvegicus)
Sequence (P10980 whole entry): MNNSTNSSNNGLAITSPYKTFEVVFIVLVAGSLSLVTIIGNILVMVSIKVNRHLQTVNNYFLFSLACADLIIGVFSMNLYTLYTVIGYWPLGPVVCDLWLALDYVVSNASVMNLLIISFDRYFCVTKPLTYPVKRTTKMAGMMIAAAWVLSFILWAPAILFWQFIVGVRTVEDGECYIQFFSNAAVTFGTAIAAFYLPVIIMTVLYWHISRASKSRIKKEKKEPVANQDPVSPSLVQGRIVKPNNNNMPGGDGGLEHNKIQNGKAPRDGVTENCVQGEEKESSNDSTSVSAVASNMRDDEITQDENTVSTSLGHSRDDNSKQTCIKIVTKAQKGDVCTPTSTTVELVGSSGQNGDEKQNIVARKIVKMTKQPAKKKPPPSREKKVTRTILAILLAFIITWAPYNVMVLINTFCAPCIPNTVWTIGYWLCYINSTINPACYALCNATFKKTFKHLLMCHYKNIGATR
Task for the reader: assign each of the following molecules its reported pKi.
Give bare numbers, as −log10 of the molar value.

>  <SMILES>
CC(=O)O[C@@H]1C[C@@H]2C[C@H](OC(=O)Cc3ccccc3)C[C@@H]1N2C

>  <pKi>
4.07

$$$$
>  <SMILES>
CC(=O)O[C@H]1C[C@@H]2C[C@@H](OC(=O)Cc3ccccc3)C[C@@H]1N2C

>  <pKi>
4.92

$$$$
>  <SMILES>
CC(=O)O[C@H]1C[C@@H]2C[C@@H](OC(=O)c3ccccc3Cl)C[C@@H]1N2C

>  <pKi>
5.06

$$$$

Kindly consider the entry below.
Lookup: Reported pKi, molecule `CC(=O)O[C@H]1C[C@@H]2C[C@@H](OC(=O)c3ccccc3[N+](=O)[O-])C[C@@H]1N2C` : ____
Found: 5.01
